Tested on: Methionine sulfoxide reductase A (Bos taurus)
Protocol: bovine MsrA enzyme activators, primary screen, biochemical, absorbance, HTS (AID 602163);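 also: 0% = vehicle and 100% = reference activator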
Conditions used: purified bovine MsrA, absorbance read-out; at 10.6 µM
The campaign covered roughly 360,000 compounds. About 1,100 (0.31%) were called active. Rule as the data show it: active = activation above about 7.5%; inactive = the rest. The sample as a whole holds a higher share of actives than the screen did.
Output constraint: value belongs to T for active, F for inactive

Example entries begin here.
{"Compound": "Cc1ccc(S(=O)(=O)N(CC(=O)NN=C2CCN(C)CC2)c2ccc(F)cc2)cc1", "Target of assay": "Methionine sulfoxide reductase A (Bos taurus)", "Discrete label": "F"}
{"Compound": "Cc1cc(OC(C)C(=O)Nc2ccc(S(=O)(=O)Nc3onc(C)c3C)cc2)cc(C)c1Cl (stereo not given)", "Target of assay": "Methionine sulfoxide reductase A (Bos taurus)", "Discrete label": "F"}
{"Compound": "O=C(NC1CCCC1)C1c2ccccc2OCC(=O)N1Cc1ccccc1 (stereo not given)", "Target of assay": "Methionine sulfoxide reductase A (Bos taurus)", "Discrete label": "F"}

Just curious, what result did COc1ccc(NC(=O)NCc2ccc3c(c2)OCO3)c(OC)c1 get here?
F

Just curious, what result did COc1cc(OC)c(C(=O)NCc2ccc3c(c2)OCO3)cc1OC get here?
T

Just curious, what result did O=C(NCc1ccccc1)C1c2ccccc2OCC(=O)N1CCCN1CCOCC1 (stereo not given) get here?
F

---

Test system: Methionine sulfoxide reductase A (Bos taurus)
Protocol: bovine MsrA enzyme activators, primary screen, biochemical, absorbance, HTS (AID 602163);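 also: 0% = vehicle and 100% = reference activator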
Conditions used: purified bovine MsrA, absorbance read-out; at 10.6 µM; stronger effect = higher value
The whole screen tested about 360,000 compounds, of which about 1,100 (0.31%) were called active. The sample as a whole holds a higher share of actives than the screen did.
Measured attribute: activation

{"Molecule": "CCOc1ccc(CCNC(=O)COC(=O)C2CCN(S(=O)(=O)c3ccccc3)CC2)cc1OCC", "activation": "-3.79% (inactive)"}
{"Molecule": "Cc1ccccc1NC(=O)c1nn(-c2ccc(F)c(F)c2)ccc1=O", "activation": "0.66% (inactive)"}
{"Molecule": "CCOc1ccc(C(C)=O)cc1COC(=O)CN1C(=O)NC2(CCCC2)C1=O", "activation": "-2.45% (inactive)"}

Look at this molecule and give its reported activation. Cc1ccc(COC(=O)CN2C(=O)NC3(CCCC3)C2=O)cc1
10.9% (active)

Look at this molecule and give its reported activation. CCS(=O)(=O)c1ccc2c(c1)N(S(=O)(=O)c1ccccc1)CC(C(=O)O)O2 (stereo unspecified)
-3.49% (inactive)

Look at this molecule and give its reported activation. O=C(CN1C(=O)NC2(CCCC2)C1=O)OCCOc1ccc(F)cc1
-0.72% (inactive)

---

Tested on: Methionine sulfoxide reductase A (Bos taurus)
Protocol: bovine MsrA enzyme activators, primary screen, biochemical, absorbance, HTS (AID 602163);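 also: 0% = vehicle and 100% = reference activator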
Conditions used: purified bovine MsrA, absorbance read-out; at 10.6 µM; stronger effect = higher value
Screen size: about 360,000 compounds; about 1,100 (0.31%) were called active. What follows is part of a selection rich in actives, with near analogues and random picks from the rest.
# Lookup of reported activation keyed by entry
Please respond with the number in % and leave the unit unwritten.

Some solved entries appear below for comparison.
{"Compound": "COC(=O)c1ccc(NC(=O)CSc2nnc(Cc3cccn3C)n2-c2ccc(F)cc2)cc1", "Unit name": "%", "activation": -0.87}
{"Compound": "COc1ccccc1NC(=O)C1CCCN1S(=O)(=O)c1ccc(Cl)cc1 (stereo not given)", "Unit name": "%", "activation": -9.31}
{"Compound": "C=C(C)C(=O)O[C@H]1C/C(C)=C\\C(=O)/C=C(\\C)[C@H](O)[C@@H]2OC(=O)C(=C)[C@@H]21", "Unit name": "%", "activation": -5.09}
{"Compound": "NC(=O)COc1ccc(/C=N/NC(=O)C2CCCN2S(=O)(=O)c2ccc(Cl)cc2)cc1 (stereo not given)", "Unit name": "%", "activation": 8.7}
{"Compound": "COc1ccc(S(=O)(=O)N2CCOCC2)cc1NC(=O)Cc1coc2cc(C)ccc12", "Unit name": "%", "activation": -1.58}

The record that follows has no activation shown yet.
Recorded activation for N#Cc1ccc(OCCN2C(=O)NC3(CCSC3)C2=O)cc1 (stereo not given) with Methionine sulfoxide reductase A (Bos taurus), please?
-0.26

---

Tested on: Methionine sulfoxide reductase A (Bos taurus)
Protocol: bovine MsrA enzyme activators, primary screen, biochemical, absorbance, HTS (AID 602163);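 also: 0% = vehicle and 100% = reference activator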
Conditions used: purified bovine MsrA, absorbance read-out; at 10.6 µM; stronger effect = higher value
The whole screen tested about 360,000 compounds, of which about 1,100 (0.31%) were called active. The sample holds actives, similar compounds and a random draw of the others, so the mix is not that of the screen.
# Lookup of reported activation keyed by entry
Please respond with the number in % and leave the unit unwritten.

Look at this molecule and give its reported activation. COC(=O)c1ccccc1NC(=O)C1(S(=O)(=O)c2ccc(Cl)cc2)CC1
-4.86

Look at this molecule and give its reported activation. O=C(Nc1ccc(S(=O)(=O)Nc2ncccn2)cc1)C12CC3CC(CC(C3)C1)C2
-5.78

Look at this molecule and give its reported activation. O=C(NCc1ccccc1)C1c2ccccc2OCC(=O)N1C1CC1 (centres undefined)
8.21

Look at this molecule and give its reported activation. CCCCn1c(N)c(N(CC(C)C)C(=O)CSc2ccc([N+](=O)[O-])cc2)c(=O)[nH]c1=O
-3.75

---

System: Methionine sulfoxide reductase A (Bos taurus)
Protocol: bovine MsrA enzyme activators, primary screen, biochemical, absorbance, HTS (AID 602163);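 also: 0% = vehicle and 100% = reference activator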
Conditions used: purified bovine MsrA, absorbance read-out; at 10.6 µM; stronger effect = higher value
The whole screen tested about 360,000 compounds, of which about 1,100 (0.31%) were called active. The full list was thinned out, with actives kept by preference.
Measured attribute: activation (%)
Please respond with the number in % and leave the unit unwritten.

Some solved entries appear below for comparison.
{"Compound string": "COc1ccccc1NC(=O)CSc1nnc(Cc2cccn2C)n1-c1ccc(F)cc1", "Target of assay": "Methionine sulfoxide reductase A (Bos taurus)", "activation (%)": -0.41}
{"Compound string": "COc1ccccc1C(=O)Nc1ccc(OCC(=O)N2CCCCC2)cc1", "Target of assay": "Methionine sulfoxide reductase A (Bos taurus)", "activation (%)": -2.88}
{"Compound string": "O=C1Oc2ccccc2C(=O)/C1=C/c1ccccc1O", "Target of assay": "Methionine sulfoxide reductase A (Bos taurus)", "activation (%)": -0.91}

The record that follows has no activation shown yet.
Look at this molecule and give its reported activation. CC1(C)CC(=O)C(C=NCc2cccnc2)=C(O)C1
-1.39
